Tested on: SF-539 CNS
protocolNotes: NCI-60 one-dose screen, 48 h
assaySetup: 10 µM unless noted
About 83,000 compounds went through this panel and 20% of them were active in at least one assay; those are over-represented in the sample as a whole. Activity calls are given as the source filed them. The calls were made as follows: active = growth percent below 10; inactive = the rest.
A correct response names exactly one class from true (1) = active, false (0) = inactive

Previously resolved entries follow.
[[record]]
molecule = "CN1CCN(c2ccc(NC(=O)c3nc4ccc5[nH]ncc5c4c4c3CCCC4)cc2C(F)(F)F)CC1"
discretelabel = "false (0)"

[[record]]
molecule = "O=C(NCCCCNC(=O)OCc1ccc2c(Cl)cc(Cl)c(O)c2n1)OCc1ccc2c(Cl)cc(Cl)c(O)c2n1"
discretelabel = "true (1)"

[[record]]
molecule = "O=C(c1ccccc1)C1C(=O)N2C(=S)N(c3ccccc3)C(=O)C2C1c1ccc(Cl)cc1 (configuration not stated)"
discretelabel = "false (0)"

[[record]]
molecule = "COc1cc(/C=C\\c2cc(/C=C\\c3ccc(O)c(OC)c3)n(C(=O)COc3ccc(Cl)cc3Cl)n2)ccc1O"
discretelabel = "true (1)"

[[record]]
molecule = "COC(=O)CCC(=O)C(=O)OC"
discretelabel = "true (1)"


Would you mind telling me which call this test gave CCCCN1C(=O)/C(=c2\sc3n(c2=O)C2C(NN=3)N(CC)C(=O)N2CC)c2ccccc21 (configuration not stated) ?
true (1)

----------
System: HOP-92 NSCLC
protocolNotes: NCI-60 one-dose screen, 48 h
assaySetup: 10 µM unless noted
About 83,000 compounds went through this panel and 20% of them were active in at least one assay; those are over-represented in the sample as a whole. Active and inactive are the calls of the source. The calls were made as follows: active = growth percent below 10; inactive = the rest.
A correct response names exactly one class from 1.0 for active, 0.0 for inactive

[[record]]
molecule = "COc1ccc(-c2nc3c(c(-c4ccccc4)nn3-c3ccccc3)c(-c3ccc(N4CCN(C)CC4)cc3)c2C#N)cc1"
discretelabel = 0.0


Would you mind telling me which call this test gave O=C1CC(N2C(=O)/C(=C/C(Cl)=C\c3ccc([N+](=O)[O-])cc3)SC2=S)C(=O)N1c1ccc(Cl)cc1 (stereo not drawn) ?
1.0

Would you mind telling me which call this test gave `O=C(/C=C/c1ccccc1)c1cccc(OCCCOc2cccc(C(=O)/C=C/c3ccccc3)c2)c1` ?
0.0

Would you mind telling me which call this test gave `COc1ccc(-c2nc(SCC(C)C)nc(N/N=C\c3ccc(F)cc3)c2C#N)cc1` ?
0.0

Would you mind telling me which call this test gave `CC1(C)CC[C@]2(C(=O)O)CC[C@]3(C)C(=CC[C@@H]4[C@@]5(C)C/C(=C/O)C(=O)C(C)(C)[C@@H]5CC[C@]43C)[C@@H]2C1` ?
0.0

Would you mind telling me which call this test gave `CC(=O)n1nc(C(=O)OC(C)C)c2cc(C)c(C)cc21` ?
0.0

Would you mind telling me which call this test gave `CCOC(=O)C(=Cc1cccc(Cl)c1)C(=O)OCC` ?
0.0

Would you mind telling me which call this test gave `O=C(O)CNC1=C(Cl)C(=O)c2ccccc2C1=O` ?
0.0

----------
System: UO-31 renal
protocolNotes: NCI-60 one-dose screen, 48 h (100 = growth as untreated, 0 = no growth, -100 = all killed)
assaySetup: 10 µM unless noted
This is part of a sample that, as a whole, favours compounds with a hit. Of some 83,000 tested, about 20% had one in any assay.
Please respond with reported growth for every item in the list.
Answers are plain numbers, in %.

Use these answered entries as a reference point.
[[record]]
compound = "CCCNC(=O)Oc1ccc(/C(=C(/C)Cc2ccc(OC)cc2)c2ccc(OCCCN(C)C)cc2)cc1"
measuredmetric = "growth"
valuereported = 60.6

[[record]]
compound = "COc1ccc(-c2csc(N(C(=O)N3CCN(c4cc5c(cc4F)c(=O)c(C(=O)O)cn5C4CC4)CC3)c3ccccc3)n2)cc1"
measuredmetric = "growth"
valuereported = 4.2


# per-item lookup of growth; items listed below
1. N#C/C(=C\c1ccc(Br)cc1)n1nnc2ccc(F)cc21
2. COC(=O)c1ccc2c(c1)C(=O)c1c-2n(CCCN)c(=O)c2cc([N+](=O)[O-])ccc12
3. CC(=O)N(N=Nc1ccccc1)c1cccc2ccccc12
4. COc1ccc(-c2cc(-c3ccc(Cl)cc3)c(C#N)c(=O)n2CCCCC(=O)Nc2ccccc2N)cc1
5. N#CC1C=CN(CC(N)=O)c2ccc3cccnc3c21 (stereo unspecified)

1: -36.4; 2: -100; 3: 61.2; 4: 33.4; 5: 97.9

----------
Test system: OVCAR-4 ovarian
protocolNotes: NCI-60 one-dose screen, 48 h
assaySetup: 10 µM unless noted
This is part of a sample that, as a whole, favours compounds with a hit. Of some 83,000 tested, about 20% had one in any assay. Active and inactive are the calls of the source. The calls were made as follows: active = growth percent below 10; inactive = the rest.
A correct response names exactly one class from 1 = active, 0 = inactive

Would you mind telling me which call this test gave `Cn1cc(-c2csc(-c3c[nH]c4ccc(Br)cc34)n2)c2cnccc21` ?
1

----------
Test system: TK-10 renal
protocolNotes: NCI-60 one-dose screen, 48 h (100 = growth as untreated, 0 = no growth, -100 = all killed)
assaySetup: 10 µM unless noted
The panel holds about 83,000 compounds, 20% with a hit somewhere; the sample as a whole holds those more often.
measuredMetric: growth (%)
Give bare numbers, in %.

Use these answered entries as a reference point.
[[record]]
molecule = "CCN1C(=O)N(CC)C2C1NN=c1s/c(=C\\c3cccc([N+](=O)[O-])c3)c(=O)n12 (centres undefined)"
unitspec = "%"
valuereported = 69.6

[[record]]
molecule = "O=C(CN1C(=O)CCC1=O)Nc1ncc(Cc2ccc(F)cc2)s1"
unitspec = "%"
valuereported = 101


# per-item lookup of growth; items listed below
1. CCCC(=O)NC(c1ccc2c(c1)OCO2)c1ccc2cccnc2c1O (centres undefined)
2. CO[C@H]1/C=C(/C)CCC[C@H](C)[C@H](O)[C@@H](C)C(=O)C(C)(C)[C@@H](O)CC(=O)O[C@@H]1/C(C)=C/c1csc(C)n1

25.8
18.8

----------
System: MALME-3M melanoma
protocolNotes: NCI-60 one-dose screen, 48 h (100 = growth as untreated, 0 = no growth, -100 = all killed)
assaySetup: 10 µM unless noted
The panel holds about 83,000 compounds, 20% with a hit somewhere; the sample as a whole holds those more often. Active and inactive are the calls of the source. How the source made its calls: active means growth percent below 10; inactive means the rest.
Please respond with reported growth for every item in the list.

[[record]]
compound = "O=C(Nc1nc2ccc(F)cc2s1)c1cccnc1Nc1ccc(Cl)cc1"
valuereported = "3.74% (active)"

[[record]]
compound = "O=C(OCc1ccc2cccc(O)c2n1)N1CCN(C(=O)c2cc3cc(F)ccc3[nH]2)CC1"
valuereported = "-93.2% (active)"

[[record]]
compound = "COC(C(=O)[C@@H](O)[C@@H](C)O)[C@@H]1Cc2cc3cc(O[C@H]4C[C@@H](O[C@H]5C[C@@H](O)[C@H](O)C(C)O5)[C@H](O)C(C)O4)cc(O)c3c(O)c2C(=O)[C@H]1O[C@H]1C[C@@H](O[C@H]2C[C@@H](O[C@H]3C[C@@H](OC)[C@H](O)C(C)O3)[C@@H](O)C(C)O2)[C@H](O)C(C)O1 (stereo not given in full)"
valuereported = "25.8% (inactive)"

[[record]]
compound = "S=C(Nc1ccc(-c2nc(N3CCOCC3)c3cccn3n2)cc1)Nc1cccnc1"
valuereported = "24.7% (inactive)"

[[record]]
compound = "C/C(=N\\NC(=O)c1ccccc1O)c1cccc(/C(C)=N/NC(=O)c2ccccc2O)n1"
valuereported = "20.9% (inactive)"


# per-item lookup of growth; items listed below
1. Nc1ncnc2c1N=C(c1ccc3c(c1)OCO3)CC(c1ccc([N+](=O)[O-])cc1)N2 (stereo not given)
2. CCOc1ccc(NC(=O)CSc2oc(-c3ccccc3)nc2S(=O)(=O)c2ccc(F)cc2)cc1
3. Brc1c2c(c(Br)c3ccccc13)CCCC2
4. COC(=O)/C=C1/SC(=Nc2ccc(C)cc2)N(CCc2c[nH]c3ccc(O)cc23)C1=O

["108% (inactive)", "78.3% (inactive)", "108% (inactive)", "77.4% (inactive)"]

# per-item lookup of growth; items listed below
1. CCCCCC(=O)OCC(=O)O[C@@H]1C[C@]2(C(C)C)O[C@@]1(C)[C@@H]1CC[C@@H](C)[C@H]1[C@@H]2OC(=O)/C=C/c1ccccc1
2. O=C(Nc1ccc(NC(=O)c2cc(=O)[nH]c3ccccc23)cc1)Nc1cccc(C(F)(F)F)c1
3. CS(=O)(=O)C1=CN(CCO)C(=O)N2CCCN=C12
4. COC(C(=O)[C@@H](O)[C@@H](C)O)[C@@H]1Cc2cc3cc(O[C@H]4C[C@@H](O[C@H]5C[C@@H](O)[C@H](O)C(C)O5)[C@H](O)C(C)O4)c(C)c(O)c3c(O)c2C(=O)[C@H]1O[C@H]1C[C@@H](O[C@H]2C[C@@H](O[C@H]3C[C@@H](O)[C@H](OC)C(C)O3)[C@@H](O)C(C)O2)[C@H](O)C(C)O1 (stereo not given in full)
5. CCCCN1C(=O)/C(=c2\sc3n(c2=O)C2C(NN=3)N(CC)C(=O)N2CC)c2ccccc21 (stereo not given)
6. CN[C@]12CC3(C=CC(=O)C=C3)O[C@@]1(Cc1ccc(OC)cc1)N(C)C(=O)N2

["49.8% (inactive)", "31.7% (inactive)", "96.2% (inactive)", "-30.7% (active)", "36.4% (inactive)", "11.2% (inactive)"]

# per-item lookup of growth; items listed below
1. COc1ccc(/C=C2\C(=O)N=C3N2NC(c2cc(Br)ccc2O)C=C(C)N3c2ccccc2)cc1 (stereo not given)
2. CN(CCn1sc(=O)n(Cc2ccccc2)c1=O)Cc1ccc2c(Cl)cc(Cl)c(O)c2n1
3. COc1ccc(OC)c(C(=O)/C=C/c2cc3c(c(OC)c2OC)OCO3)c1
4. N#Cc1nn(-c2cc(=O)[nH]c3ccc(Cl)cc23)c(N)c1C#N
5. CCN(c1ccc(Cl)cc1)c1nc(-c2ccc([N+](=O)[O-])cc2)cs1
6. COc1ccc(/C=C2\COc3ccc(O)cc3C2=O)c(OC)c1OC
7. COc1ccc(C/C(C)=C(/c2ccc(OCCN3CCCCC3)cc2)c2ccc(OC(=O)NCc3ccccc3)cc2)cc1

92.2% (inactive)
63.7% (inactive)
80.9% (inactive)
91.9% (inactive)
80.5% (inactive)
78.2% (inactive)
-87.3% (active)

# per-item lookup of growth; items listed below
1. O=C1/C(=C/c2ccc(-c3ccc(Br)cc3)o2)SC(=S)N1CCc1ccc(O)cc1
2. O=C1/C(=C/c2ccc(Cl)cc2)COc2ccc(O)cc21

["73.5% (inactive)", "94.9% (inactive)"]

Annotate the compound `N#CCSc1nnc2n(Cc3ccccc3)c(=O)c3c4c(sc3n12)CCCC4` with its measured growth.
99.5% (inactive)
